assay: Quantitative High-Throughput drug screen in 47 multiple myeloma cell lines against the NCATS MIPE library collection: FR4_PLB cell viability assay (AID 1918924; further: nearly all actives have a fitted effect of over 35% in size); conditions: FR4_PLB myeloma cells viability, CellTiter-Glo ATP, 48 h; series mostly up to 45.8 µM
Results filed as inconclusive are left out. Calls of active or inactive are those of the source. The call rests on the fitted dose curve; in most records, active means well fitted cell-killing curve with a large enough effect; inconclusive means small, poorly fitted or top-dose-only effect, or effect the other way; inactive means no such curve, though single readings can be large or run the other way.
Classes used: YES for active, NO for inactive

Molecule: O=C(c1cncc(Br)c1)N1CCC(N2CCCC2)CC1
Class name: NO
//
Molecule: COc1cc2c(NC3CCN(C(C)C)CC3)nc(C3CCCCC3)nc2cc1OCCCN1CCCC1
Class name: YES
//
Molecule: Cc1coc2c1C(=O)C(=O)c1c-2ccc2c1CCCC2(C)C
Class name: YES
//
Molecule: CC(=O)OCCN1C(=O)c2c(C)nc3ccc(S(=O)(=O)N4CCOCC4)cc3c2C1=O
Class name: NO
//
Molecule: CCn1cc(-c2ccnc3[nH]c(-c4cccc(CN(C)C)c4)cc23)c(-c2ccc(NC(=O)N(C)C)cc2)n1
Class name: YES
//
Molecule: C=C1C(=CC=C2CCC[C@]3(C)[C@@H]([C@H](C)C=C[C@H](C)C(C)C)CC[C@@H]23)C[C@@H](O)C[C@@H]1O
Class name: YES
//
Molecule: Cc1cc(Nc2ncnc3ccc(-c4ccc(CNCCS(C)(=O)=O)o4)cc23)ccc1Oc1ccn2ncnc2c1
Class name: YES
//
Molecule: C#Cc1cccc(Nc2ncnc3cc(OC)c(OCCCCCCC(=O)NO)cc23)c1
Class name: YES
//
Molecule: CC1COC2(CCN(c3nc(=O)c4cc(C(F)(F)F)cc([N+](=O)[O-])c4s3)CC2)O1 (configuration not stated)
Class name: NO
//
Molecule: COc1cc2c(Oc3ccc(NC(=O)C4(C(=O)Nc5ccc(F)cc5)CC4)cc3F)ccnc2cc1OCCCN1CCOCC1
Class name: YES
//
Molecule: O=C(O)c1ccc2c(c1)nc(Nc1cccc(Cl)c1)c1ccncc12
Class name: YES
//
Molecule: Cc1nc2cnc3ccc(C#Cc4cccnc4)cc3c2n1-c1ccc(C(C)(C)C#N)cc1
Class name: YES
//
Molecule: Cc1c(Cn2c(C)nc3c(C(=O)O)cc(N4CCOCC4)cc32)cccc1C(F)(F)F
Class name: YES
//
Molecule: CC1=C(CO)C(=O)O[C@@H]([C@@H](C)[C@H]2CC[C@H]3[C@@H]4C[C@H]5O[C@]56[C@@H](O)C=CC(=O)[C@]6(C)[C@@H]4CC[C@]23C)C1
Class name: YES
//
Molecule: COC(=O)C1=C(C)NC(C)=C(C(=O)OCCN2CCN(C(c3ccccc3)c3ccccc3)CC2)C1c1cccc([N+](=O)[O-])c1 (configuration not stated)
Class name: NO
//
Molecule: Cn1c2cc(S(C)=O)sc2c2cnn(Cc3cccc(N)c3)c(=O)c21 (configuration not stated)
Class name: NO
//
Molecule: Cn1c(CNc2ccc(C(=N)N)cc2)nc2cc(C(=O)N(CCC(=O)O)c3ccccn3)ccc21
Class name: NO
//
Molecule: Cc1cn2c(-c3cn[nH]c3)cnc2c(Nc2ccc(C(=O)N3CCNCC3)cc2F)n1
Class name: YES
//
Molecule: O=C(Cc1ccc(-c2ccc(OCCN3CCOCC3)cc2)cn1)NCc1ccccc1
Class name: YES
//
Molecule: C=CC(=O)Nc1cc2c(Nc3ccc(F)c(Cl)c3)ncnc2cc1C#CC(C)(C)N1CCN(C)CC1
Class name: YES
//
Molecule: CC(C)c1cc(C(=O)N2Cc3ccc(CN4CCN(C)CC4)cc3C2)c(O)cc1O
Class name: YES
//
Molecule: C1Cc2[nH]nc(-c3nn[nH]n3)c2C1
Class name: NO
//
Molecule: O=C(Nc1cn[nH]c1-c1nc2ccc(CN3CCOCC3)cc2[nH]1)NC1CC1
Class name: YES
//
Molecule: Nc1ccc(C(=O)c2cc3c(ccc4ccccc43)[nH]2)cc1
Class name: YES
//
Molecule: CC(C)c1cnn2c(NCc3ccccc3)cc(N[C@@H](CO)[C@H](O)CO)nc12
Class name: YES
//
Molecule: c1cc(-c2cnn3cc(-c4ccc(OCCN5CCCCC5)cc4)cnc23)ccn1
Class name: YES
//
Molecule: CNC(=O)c1ccccc1Nc1nc(Nc2ccc(N3CCOCC3)cc2OC)ncc1Cl
Class name: YES
//
Molecule: COc1ccc(-n2nc(C(N)=O)c3c2C(=O)N(c2ccc(N4CCCCC4=O)cc2)CC3)cc1
Class name: NO
//
Molecule: Fc1cc(-c2cccc3ncc(-c4cnn(C5CCNCC5)c4)nc23)cc(F)c1CN1CCOCC1
Class name: YES
//
Molecule: Cc1nc(N)ncc1-c1nc(N2CCOCC2)c2sc(C(C)(C)O)cc2n1
Class name: YES
//
Molecule: Cc1ccc(C(=O)Nc2cccc(C(F)(F)F)c2)cc1-c1ccc2nc(NCCN3CCOCC3)ncc2c1
Class name: YES
//
Molecule: CN(C)CC=CC(=O)Nc1cc2c(Nc3ccc(F)c(Cl)c3)ncnc2cc1O[C@H]1CCOC1
Class name: YES
//
Molecule: Cc1ccc2nc(NC(=O)CSc3nc4c(c(=O)n3-c3ccccc3)SCC4)sc2c1
Class name: YES
//
Molecule: CCS(=O)(=O)c1cccc(-c2cc(C(=O)NC3CCN(C)CC3)c(C)c3[nH]c4ncc(C)cc4c23)c1
Class name: YES
//
Molecule: CC(=O)Nc1nc(C)c(-c2ccc(Cl)c(S(=O)(=O)NCCO)c2)s1
Class name: YES
//
Molecule: CC[C@@H]1C(=O)N(C)c2cnc(Nc3ccc(C(=O)NC4CCN(C)CC4)cc3OC)nc2N1C1CCCC1
Class name: YES
//
Molecule: Cc1cnc(Nc2ccc(F)cc2Cl)nc1-c1c[nH]c(C(=O)N[C@H](CO)c2cccc(Cl)c2)c1
Class name: YES
